B1: library; numbered along this chain (parent)
chain: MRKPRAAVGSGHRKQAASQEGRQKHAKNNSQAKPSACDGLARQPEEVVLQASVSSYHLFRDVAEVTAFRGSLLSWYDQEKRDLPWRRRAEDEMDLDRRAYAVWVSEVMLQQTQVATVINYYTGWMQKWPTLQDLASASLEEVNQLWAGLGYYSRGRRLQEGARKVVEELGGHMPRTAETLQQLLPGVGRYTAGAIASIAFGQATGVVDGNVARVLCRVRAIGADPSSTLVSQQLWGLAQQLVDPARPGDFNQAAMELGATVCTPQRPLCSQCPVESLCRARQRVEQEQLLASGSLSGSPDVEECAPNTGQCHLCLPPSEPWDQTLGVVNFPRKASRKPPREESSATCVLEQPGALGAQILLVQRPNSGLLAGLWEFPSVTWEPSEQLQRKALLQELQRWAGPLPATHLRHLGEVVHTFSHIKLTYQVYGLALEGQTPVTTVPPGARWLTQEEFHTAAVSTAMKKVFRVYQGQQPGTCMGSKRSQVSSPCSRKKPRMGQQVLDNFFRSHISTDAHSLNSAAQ

Variants of: B1
assay_info: 8OG:A repair function score (normalized; synonymous = 0, nonsense = -1) (normalized log-likelihood score); higher = more repair activity (WT-like);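 also: cells sorted at 72 h after reporter transfection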
test_settings: with 8OG:A DNA repair reporter (GFP) in HEK-293 MUTYH KO cells
8OG:A repair function score values, listed per item
parameter: 8OG:A repair function score

>>> quantitative_result("L83F")
-0.285
>>> quantitative_result("M173G")
-0.965
>>> quantitative_result("A254C")
-0.0862
>>> quantitative_result("H407C")
-0.123
>>> quantitative_result("L349F")
-0.112
>>> quantitative_result("G123H")
-0.0466
>>> quantitative_result("Y120P")
-0.134
>>> quantitative_result("L290Y")
-0.0918
>>> quantitative_result("P185W")
-0.553
>>> quantitative_result("Q78S")
0.00682
>>> quantitative_result("W128F")
-0.156
>>> quantitative_result("S367W")
0.00054
>>> quantitative_result("V117L")
-0.727
>>> quantitative_result("T380F")
0.194
>>> quantitative_result("Q498K")
-0.00149
>>> quantitative_result("S343A")
0.0302
>>> quantitative_result("Q282W")
-0.0465
